# targetOrTestSystem: Isocitrate dehydrogenase [NADP] cytoplasmic (Homo sapiens, UniProt O75874, R132C)
# Sequence (O75874 2-414 R132C limits assumed): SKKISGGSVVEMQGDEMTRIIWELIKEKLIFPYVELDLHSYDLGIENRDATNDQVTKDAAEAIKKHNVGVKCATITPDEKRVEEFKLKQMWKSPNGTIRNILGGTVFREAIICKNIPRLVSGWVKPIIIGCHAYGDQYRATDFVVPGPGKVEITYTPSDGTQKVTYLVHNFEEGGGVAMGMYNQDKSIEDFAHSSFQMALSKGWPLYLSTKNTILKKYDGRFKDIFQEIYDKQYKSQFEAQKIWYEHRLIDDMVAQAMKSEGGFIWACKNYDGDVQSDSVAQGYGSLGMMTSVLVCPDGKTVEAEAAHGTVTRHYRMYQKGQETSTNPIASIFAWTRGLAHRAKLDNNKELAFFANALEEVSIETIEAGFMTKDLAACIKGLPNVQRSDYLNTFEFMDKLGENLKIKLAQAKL
# measurementDescription: Inhibition of IDH1 R132C mutant (unknown origin) assessed as reduction in NADPH consumption using alpha-KG as substrate incubated for 5 mins by diaphorase/resazurin-coupled system
Can you tell me IC50 for the items I'm about to list?
Numbers only, in nM.

Examples from the recorded data:
compound	IC50 (nM)
CCc1cccc(CC)c1-n1c(C=C(C)C)c(C(=O)N2CCNC(C(F)(F)F)C2)cc(-c2nc(-c3ccc(Cl)cc3)cs2)c1=O (stereo unspecified)	130
COc1ccc(OC)c(-n2c3c(cc(-c4nc(-c5ccc(Cl)cc5)c[nH]4)c2=O)C(=O)CC(C)(C)C3)c1	2500
COc1ncccc1-n1c2c(cc(-c3nc(-c4ccc(Cl)cc4)cs3)c1=O)C(=O)CC(C)(C)C2	1300
CCc1cccc(CC)c1-n1c(CC2CCOCC2)c(C(=O)N2CCNCC2)cc(-c2nc(-c3ccc(Cl)cc3)cs2)c1=O	980
CCc1cccc(CC)c1-n1c(C=C(C)C)c(C(=O)N2CCNC(CO)C2)cc(-c2nc(-c3ccc(Cl)cc3)cs2)c1=O (stereo unspecified)	60

Return reported IC50 values for all items listed beneath this line.
1. COc1cccc(OC)c1-n1c2c(cc(-c3nc(-c4ccc(Cl)cc4)cs3)c1=O)C(=O)CC(C)(C)C2
2. CCc1ccc(C)cc1-n1c(C=C(C)C)c(C(=O)N2CCNCC2)cc(-c2nc(-c3ccc(Cl)cc3)cs2)c1=O

Ans.
[1600, 110]

The following compounds each have a reported value; give each one's IC50.
1. CCc1cccc(CC)c1-n1c(C=C(C)C)c(C(=O)N2CCNCC2C)cc(-c2nc(-c3ccc(Cl)cc3)cs2)c1=O (stereo unspecified)
2. CCOc1cccc(OCC)c1-n1c2c(cc(-c3nc(-c4ccc(Cl)cc4)cs3)c1=O)C(=O)CC(C)(C)C2
3. CCc1cccc(C)c1-n1c(C=C(C)C)c(C(=O)N2CCNCC2)cc(-c2nc(-c3ccc(Cl)cc3)cs2)c1=O
4. CCc1cccc(CC)c1-n1c(CCC(F)(F)F)c(C(=O)N2CCNCC2)cc(-c2nc(-c3ccc(Cl)cc3)cs2)c1=O
5. CCc1cccc(CC)c1-n1c(C=C(C)C)c(C(=O)N2C3CCC2CNC3)cc(-c2nc(-c3ccc(Cl)cc3)cs2)c1=O

Ans.
[53, 160, 2200, 600, 47]
